Measured values drawn from patent US20230331821A1 for this set.

# Measurement Target: SARS-CoV-1 Spike (S) protein, strain SARS, on ExpiCHO cells (SARS-CoV (SARS-CoV-1), strain SARS, UniProt P59594 14-1255)
# Assay Notes: flow cytometry, ExpiCHO cells expressing SARS-CoV-1 S; % positive cells
EC50 (read off the curve) values for the binders below.

S303 rIgG1 (antibody, V domains shown) VH: EVQLVESGGGLVKPGGSLRLSCAASGFTFLTYSMNWVRQTPGKRLQWVSAISGSGGATYYADSVKGRFTISRDNSKNTLYLQMNTVTADDTAIYFCARERDDIFPMGLNAFDIWGQGAMVIVSS VL: DIQMTQSPSTLSASVGDRVTITCRASQSISNWLAWYQQKPGKAPKLLIYKASSLESGVPSRFSGSGSGTEFTLTISSLQPDDSATYYCQQYDTYSWTFGQGTKVEIK | ~1 ng/mL
S304 rIgG1 (antibody, V domains shown) VH: EVQLVESGGGLVQPGGSLRLSCAASGFTFSSYDMHWVRQTTGKGLEWVSTIGTAGDTYYPDSVKGRFTISREDAKNSLYLQMNSLRAGDTAVYYCARGDSSGYYYYFDYWGQGTLLTVSS VL: DIQMTQSPSSLSAAVGDRVTITCRASQSIGSYLNWYQQKPGKAPKLLIYAASSLQSGVPSRFSGSGSGTDFTLTISSLQPEDFAIYYCQQSYVSPTYTFGPGTKVDIK | ~10 ng/mL
S315 recombinant IgG1 (antibody, V domains shown) VH: EVQLVESGGGLVQPGGSLRLSCAASGFTFSNYWMTWVRQAPGKGLEWVANIKQDGSEKYYVDSVKGRFTISRDNAKNSLYLQMNSLRAEDTAVYYCARDLWWNDQAHYYGMDVWGQGTTVTVSS VL: SYELTQPPSVSVSPGQTARITCSGDAFPNQYAYWYQQKPGQAPVMLIYKDSERPSGIPERFFGSSSGTTVTLTIRGVQAEDEADYYCQSADSSGTVFGGGTKLTVL | ~7 ng/mL
S310 (antibody, V domains shown) VH: QVQLVQSGAELKKPGSSVKVSCKASGGTFNSYSFNWVRQAPGQGLEWLGGIIPVLGTSNYAQKFQGRVAVTADEFTTTAYMELSSLRSEDTAVYYCATRTYDSSGYRPYYYGLDVWGQGTPVTVSS VL: QSALTQPASVSGSPGQSITISCTGTSSDVGSYNLVSWYQQRPGKAPELMIYEVTKRPSGLSNRFSGSKSGNTASLTISGLQAEDEADYYCCSYAGSDTVIFGGGTKVTVL | ~200 ng/mL

Now consider a different binder.
Which EC50 (read off the curve) value is on record for S306 (antibody, V domains shown) VH: QVQLVQSGAEVKKPGASVKVSCKASTYTFTSFGISWVRQAPGQGLEWMGWITTYSGDTNYAQKFQGRVTMTTDTSTNTAYMELRSLRSDDTAVYYCASDYFDSSGYYHSFDYWGQGTLVTVSS VL: EIVLTQSPDTLSLSPGERATLSCRASQSVSSYLAWYQQRPGQAPRLLIYDASKRATGIPARFSGSGSGTDFTLTISSLEPEDFAVYYCQQRSNWPPGCSFGQGTKVEIK ? ~20 ng/mL
